- tgt: Trypsin, Iodination grade, from human pancreas (human, UniProt P07477 24-247)
- experiment_notes: cell-based or functional assay
Examples of binders with documented % inhibition at 100 µM follow.
Your answer should be a plain number; it is taken to be in %.

Study these solved cases before continuing.
FCTKSDPPXCS (HELM PEPTIDE1{F.C.T.K.S.D.P.P.[Cha].C.S.[dP].P}$PEPTIDE1,PEPTIDE1,2:R3-10:R3|PEPTIDE1,PEPTIDE1,1:R1-13:R2$$$V2.0; SMILES C[C@@H](O)[C@@H]1NC(=O)[C@@H]2CSSC[C@H](NC(=O)[C@H](CC3CCCCC3)NC(=O)[C@@H]3CCCN3C(=O)[C@@H]3CCCN3C(=O)[C@H](CC(=O)O)NC(=O)[C@H](CO)NC(=O)[C@H](CCCCN)NC1=O)C(=O)N[C@@H](CO)C(=O)N1CCC[C@@H]1C(=O)N1CCC[C@H]1C(=O)N[C@@H](Cc1ccccc1)C(=O)N2) [Example 16]: 90
FCTKSDPPICS (HELM PEPTIDE1{F.C.T.K.S.D.P.P.I.C.S.[dD].P}$PEPTIDE1,PEPTIDE1,2:R3-10:R3|PEPTIDE1,PEPTIDE1,1:R1-13:R2$$$V2.0; SMILES CC[C@H](C)[C@@H]1NC(=O)[C@@H]2CCCN2C(=O)[C@@H]2CCCN2C(=O)[C@H](CC(=O)O)NC(=O)[C@H](CO)NC(=O)[C@H](CCCCN)NC(=O)[C@H]([C@@H](C)O)NC(=O)[C@@H]2CSSC[C@H](NC1=O)C(=O)N[C@@H](CO)C(=O)N[C@H](CC(=O)O)C(=O)N1CCC[C@H]1C(=O)N[C@@H](Cc1ccccc1)C(=O)N2) [Example 46]: 95

# next binder below
Query :: // returns reported % inhibition at 100 µM for input ICTKSDPPYCR (HELM PEPTIDE1{I.C.T.K.S.D.P.P.Y.C.R.[dP].P}$PEPTIDE1,PEPTIDE1,2:R3-10:R3|PEPTIDE1,PEPTIDE1,1:R1-13:R2$$$V2.0; SMILES CC[C@H](C)[C@@H]1NC(=O)[C@@H]2CCCN2C(=O)[C@H]2CCCN2C(=O)[C@H](CCCNC(=N)N)NC(=O)[C@@H]2CSSC[C@H](NC1=O)C(=O)N[C@@H]([C@@H](C)O)C(=O)N[C@@H](CCCCN)C(=O)N[C@@H](CO)C(=O)N[C@@H](CC(=O)O)C(=O)N1CCC[C@H]1C(=O)N1CCC[C@H]1C(=O)N[C@@H](Cc1ccc(O)cc1)C(=O)N2) [Example 56]
Result :: 84
